# MEASUREMENT DESCRIPTION: plasma concentration was measured against the Nonhuman primates (cynomolgus monkey) using HPLC after 3 hr; uM
OUTCOME MEASURE: concentration at 3 h (nM)
Your answer is read as nM, so omit the unit and give the number.

Requested field: concentration at 3 h. Item: "CN1CCN=C1c1cccc(Oc2nc(Oc3cc(C(=N)N)ccc3O)c(F)c(N(C)CC(=O)O)c2F)c1"
700

----------
# MEASUREMENT DESCRIPTION: plasma concentration was measured against the Nonhuman primates (baboon) using FXa inhibition assay after 3 hr; uM
# Format: ADME, organism-based, Papio
OUTCOME MEASURE: concentration at 3 h (nM)
Express it in nM; write the number only.

                           structure_smiles       outcome_measure  reading_unit  reading
0  CCOC(=O)[C@@H]1C[C@@H](Oc2c(F)c(Oc3cccc(C4=NCCN4C)c3)nc(Oc3cc(C(=N)N)ccc3O)c2F)CN1  concentration at 3 h            nM      600
1  CN1CCN=C1c1cccc(Oc2nc(Oc3cc(C(=N)N)ccc3O)c(F)c(OC3CCN(CC(=O)O)CC3)c2F)c1  concentration at 3 h            nM      100

API: the following record is the query input.
Name the reported concentration at 3 h value associated with the compound "CN1CCN=C1c1cccc(Oc2nc(Oc3cc(C(=N)N)ccc3O)c(F)c(N(C)CC(=O)O)c2F)c1"
900

----------
# MEASURED ON: Serine protease 1 (Bos taurus, UniProt P00760)
# Sequence (P00760 whole entry): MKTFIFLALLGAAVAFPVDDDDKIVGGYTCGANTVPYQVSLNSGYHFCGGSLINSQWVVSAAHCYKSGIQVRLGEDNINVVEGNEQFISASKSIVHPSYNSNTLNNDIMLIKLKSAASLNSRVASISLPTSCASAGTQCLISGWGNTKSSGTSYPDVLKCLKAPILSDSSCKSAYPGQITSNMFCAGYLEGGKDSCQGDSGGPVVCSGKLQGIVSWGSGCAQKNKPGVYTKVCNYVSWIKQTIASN
Below, each of the compounds is paired with its reported pKi value.
Quick note: pKi values are minus log10 of concentrations in mol/L.

>>> print(df.to_string())
                           structure_smiles  reading
0  Cc1c(F)c(Oc2cccc(C(=N)N)c2)nc(Oc2cccc(C(=O)N(C)C)c2)c1F     5.57
1  Cc1c(F)c(Oc2cccc(C(=O)N(C)C)c2)nc(Oc2cc(C(=N)N)ccc2N)c1F     6.26
2  COc1ccc(C(=N)N)cc1Oc1nc(Oc2cccc(C(=O)N(C)C)c2)c(F)c(C)c1F     5.37

Give its pKi value. Item: "N=C(N)c1cccc(Oc2nc(Oc3cccc(C(=N)N)c3)c(Cl)cc2Cl)c1"
5.68

Consider the compound "CN(C)C(=O)c1cccc(Oc2cc(C(=O)O)cc(Oc3cc(C(=N)N)ccc3O)n2)c1" and give its measured pKi.
6.52

Item "Cc1c(F)c(Oc2cccc(C(=O)N(C)C)c2)nc(Oc2cc(C(=N)N)ccc2O)c1F" has what recorded pKi?
5.96

pKi for "Cc1c(F)c(Oc2cccc(C(=N)N)c2)nc(Oc2cccc(C(=N)N)c2)c1F" ?
6.09

Looking for the measured pKi of "N=C(N)c1ccc(Oc2cccc(Oc3ccc(C(=N)N)cc3)n2)cc1" , can you help?
5.55

Need pKi of "N=C(N)c1cccc(Oc2cccc(Oc3cccc(C(=N)N)c3)n2)c1" , thanks.
5.96

----------
# MEASURED ON: Serine protease 1 (Bos taurus, UniProt P00760)
# Sequence (P00760 whole entry): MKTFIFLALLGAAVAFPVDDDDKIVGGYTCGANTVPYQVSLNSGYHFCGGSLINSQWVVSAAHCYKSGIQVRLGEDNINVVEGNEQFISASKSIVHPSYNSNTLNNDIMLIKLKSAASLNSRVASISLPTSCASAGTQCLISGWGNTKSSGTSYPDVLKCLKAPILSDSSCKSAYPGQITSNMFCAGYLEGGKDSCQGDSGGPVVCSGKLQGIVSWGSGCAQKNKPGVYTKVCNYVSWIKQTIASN
Cut-off 300 nM on Ki: below means Yes, at or above means No.

// below: answered compounds
                           structure_smiles  cat
0  N=C(N)c1ccc(O)c(Oc2cc(C(=O)O)cc(Oc3cccc(-n4ccnc4)c3)n2)c1   No
1  CN(C)C(=O)c1cccc(Oc2nc(Oc3cc(C(=N)N)ccc3O)c(F)c(N(C)CC(=O)O)c2F)c1   No
2  CN1CCN=C1c1cccc(Oc2nc(Oc3cc(C(=N)N)ccc3O)c(F)c(O[C@H]3CN[C@H](C(=O)O)C3)c2F)c1   No
3  CN1CCN=C1c1cccc(Oc2cc(C(=O)O)cc(Oc3cc(C(=N)N)ccc3O)n2)c1  Yes
4  N=C(N)c1ccc(Oc2cccc(Oc3cccc(C(=N)N)c3)n2)cc1   No

Moving on to another compound below.
Is the reported Ki for "CCOC(=O)[C@@H]1C[C@@H](Oc2c(F)c(Oc3cccc(C4=NCCN4C)c3)nc(Oc3cc(C(=N)N)ccc3O)c2F)CN1" strictly below 300 nM?
No

----------
# MEASUREMENT DESCRIPTION: plasma concentration was measured against the Nonhuman primates (cynomolgus monkey) using HPLC after 2 hr; uM
OUTCOME MEASURE: concentration at 2 h (nM)
Use nM as the unit, but write only the number.

Looking for the measured concentration at 2 h of "CN1CCN=C1c1cccc(Oc2nc(Oc3cc(C(=N)N)ccc3O)c(F)c(N(C)CC(=O)O)c2F)c1" , can you help?
500

----------
A collection of compounds and their measured concentration at 2 h
# MEASUREMENT DESCRIPTION: Inhibitor plasma concentration was measured in dogs on 10 mg/kg oral dosing after 2 hr administration; uM
# Format: ADME, organism-based, Canis lupus familiaris
# Design: dose 10 mg/kg, route oral
# CONDITION DESCRIPTION: dog
Field note: include the unit after the figure.

                                   compound       outcome_measure  reading
0  CN(C)C(=O)c1cccc(Oc2nc(Oc3cc(C(=N)N)ccc3O)c(F)c(N(C)CC(=O)O)c2F)c1  concentration at 2 h   400 nM
1  CCOC(=O)[C@@H]1C[C@@H](Oc2c(F)c(Oc3cccc(C(=O)N(C)C)c3)nc(Oc3cc(C(=N)N)ccc3O)c2F)CN1  concentration at 2 h   200 nM
2  CN1CCN=C1c1cccc(Oc2nc(Oc3cc(C(=N)N)ccc3O)c(F)c(O[C@H]3CN[C@H](C(=O)O)C3)c2F)c1  concentration at 2 h  2200 nM

Any idea what its concentration at 2 h is? The compound is CN1CCN=C1c1cccc(Oc2nc(Oc3cc(C(=N)N)ccc3O)c(F)c(N(C)CC(=O)O)c2F)c1 [FIDEXABAN]
2100 nM

Give the measured concentration at 2 h of "CCOC(=O)[C@@H]1C[C@@H](Oc2c(F)c(Oc3cccc(C4=NCCN4C)c3)nc(Oc3cc(C(=N)N)ccc3O)c2F)CN1" .
3400 nM

Return reported concentration at 2 h; argument: "CN1CCN=C1c1cccc(Oc2nc(Oc3cc(C(=N)N)ccc3O)c(F)c(OC3CCN(CC(=O)O)CC3)c2F)c1"
3800 nM

# get_value(readout='concentration at 2 h', item= "CCOC(=O)CN1CCC(Oc2c(F)c(Oc3cccc(C4=NCCN4C)c3)nc(Oc3cc(C(=N)N)ccc3O)c2F)CC1" )
300 nM

Fill in the blank: the reported concentration at 2 h of "CN(C)C(=O)c1cccc(Oc2nc(Oc3cc(C(=N)N)ccc3O)c(F)c(OC3CCN(CC(=O)O)CC3)c2F)c1" is ____.
100 nM

Returns the measured concentration at 2 h for the input compound. Input: "CCOC(=O)CN(C)c1c(F)c(Oc2cccc(C3=NCCN3C)c2)nc(Oc2cc(C(=N)N)ccc2O)c1F"
200 nM

----------
List of concentration at 4 h values.
# MEASUREMENT DESCRIPTION: Inhibitor plasma concentration was measured in dogs on 10 mg/kg oral dosing after 4 hr administration; uM
# Assay type: ADME, organism-based, Canis lupus familiaris
# Parameters: dose 10 mg/kg, route oral
# CONDITION DESCRIPTION: dog
Value and unit, in that order.

Examples from the recorded data:
                           structure_smiles       outcome_measure  reading
0  CCOC(=O)CN(C)c1c(F)c(Oc2cccc(C3=NCCN3C)c2)nc(Oc2cc(C(=N)N)ccc2O)c1F  concentration at 4 h   100 nM
1  CN1CCN=C1c1cccc(Oc2nc(Oc3cc(C(=N)N)ccc3O)c(F)c(N(C)CC(=O)O)c2F)c1  concentration at 4 h   700 nM
2  CCOC(=O)[C@@H]1C[C@@H](Oc2c(F)c(Oc3cccc(C(=O)N(C)C)c3)nc(Oc3cc(C(=N)N)ccc3O)c2F)CN1  concentration at 4 h   100 nM
3  CCOC(=O)[C@@H]1C[C@@H](Oc2c(F)c(Oc3cccc(C4=NCCN4C)c3)nc(Oc3cc(C(=N)N)ccc3O)c2F)CN1  concentration at 4 h  2600 nM
4  CN1CCN=C1c1cccc(Oc2nc(Oc3cc(C(=N)N)ccc3O)c(F)c(OC3CCN(CC(=O)O)CC3)c2F)c1  concentration at 4 h  1200 nM
5  CCOC(=O)CN1CCC(Oc2c(F)c(Oc3cccc(C4=NCCN4C)c3)nc(Oc3cc(C(=N)N)ccc3O)c2F)CC1  concentration at 4 h   200 nM

Now consider the entry below.
Value lookup for concentration at 4 h; key = "CN1CCN=C1c1cccc(Oc2nc(Oc3cc(C(=N)N)ccc3O)c(F)c(O[C@H]3CN[C@H](C(=O)O)C3)c2F)c1"
800 nM
